- Assayed Target: Microphthalmia-associated transcription factor (Homo sapiens)
- Assay Explanation: MITF inhibitors, primary screen, biochemical, AlphaScreen, human (AID 1259374);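 note: 0% = vehicle wells with protein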
- Assay Context: AlphaScreen MITF homodimerization, bead proximity signal; at 2.6 µM
The whole screen tested about 650,000 compounds, of which about 5,900 (0.91%) were called active. Cut-off read from the data, not from the text of the source: active = inhibition above about 50%; inactive = the rest. The full list was thinned out, with actives kept by preference.
Classes used: active, inactive

Molecule	Qualitative Label
CC(C)Oc1ccccc1/C=C(\C#N)C(=O)Nc1ccccc1	inactive
Cc1ccccc1-n1c(SCC(=O)Nc2ccc(C(N)=O)cc2)nnc1-c1ccncc1	inactive
CCN(C(=O)c1ccc([N+](=O)[O-])cc1)c1ccccc1	inactive
CN(C)CCCN(CCCN(C)C)Cc1ccc([N+](=O)[O-])cc1	inactive
COc1cccc(/C=N/Nc2nc(=O)[nH]nc2C)c1OC	inactive
O=C(O)C1CSC(c2cccc(I)c2)N1 (stereo unspecified)	inactive
COc1ccc(C2CC(=O)C3=C(C2)Nc2ccccc2N(C(=O)c2ccc(Cl)c(Cl)c2)C3c2ccc(C)cc2)cc1 (stereo unspecified)	inactive
CCN(Cc1ccccc1)Cc1ccc([N+](=O)[O-])cc1	active
Cc1cccc(Nc2nc(=O)[nH]nc2C)c1	inactive
CCN(CC)c1ccc(C2C3=C(CC(C)(C)CC3=O)Nc3ccccc3N2C(=O)Cc2ccccc2)cc1 (stereo unspecified)	inactive
Cc1n[nH]c(=O)nc1N/N=C/c1cccs1	active

---

- Assayed Target: Microphthalmia-associated transcription factor (Homo sapiens)
- Assay Explanation: MITF inhibitors, primary screen, biochemical, AlphaScreen, human (AID 1259374);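 note: 0% = vehicle wells with protein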
- Assay Context: AlphaScreen MITF homodimerization, bead proximity signal; at 2.6 µM; active compounds read high
Among all 650,000 compounds or so, about 5,900 (0.91%) were called active. Many of the other results were omitted from the sample, so actives are more common in it than they were.
Readout: inhibition (%)

Molecule	Assayed Target	Readout	Reported Result
Cc1ccccc1CN1CCC(N2CCCCC2)CC1	Microphthalmia-associated transcription factor (Homo sapiens)	inhibition	32.6
CC12CCOCC1C2C(=O)Nc1ccc(N=Nc2ccccc2)cc1 (stereo unspecified)	Microphthalmia-associated transcription factor (Homo sapiens)	inhibition	-6.59
COc1ccc(CN2CCc3nnc(C4CCCO4)n3CC2)c(OC)c1OC (stereo unspecified)	Microphthalmia-associated transcription factor (Homo sapiens)	inhibition	-1.23
CCOc1ccc2[nH]c(=O)c(CN(CCO)C(=O)c3ccco3)cc2c1	Microphthalmia-associated transcription factor (Homo sapiens)	inhibition	6.48
Cc1c(C(C)NC(=O)c2csc(C(C)C)n2)cnn1-c1ccccn1 (stereo unspecified)	Microphthalmia-associated transcription factor (Homo sapiens)	inhibition	1.61
CO[C@@H](C1CCCCC1)[C@@H](C)[C@H](OCc1cccc(Br)c1)[C@@H](C)CO	Microphthalmia-associated transcription factor (Homo sapiens)	inhibition	-6.84
COc1ccc(C(=O)N2CCCCO2)cc1OC1CCN(C(C)=O)CC1	Microphthalmia-associated transcription factor (Homo sapiens)	inhibition	2.51
COc1ccc(C(=O)NC(NC(=O)c2ccc(OC)cc2)c2cccc(OC)c2)cc1	Microphthalmia-associated transcription factor (Homo sapiens)	inhibition	9.45
CCc1ccc(C(=O)N2CCN3C(=O)[C@H](CO)NC(=O)[C@H]3C2)cc1	Microphthalmia-associated transcription factor (Homo sapiens)	inhibition	-8.93
COc1ccc(CN2CCN(S(=O)(=O)c3cc(Br)c(Br)s3)CC2)c(OC)c1OC	Microphthalmia-associated transcription factor (Homo sapiens)	inhibition	19.2
COc1ccc(CN2CCN(Cc3ccccc3C)CC2)c(OC)c1OC	Microphthalmia-associated transcription factor (Homo sapiens)	inhibition	56.1

---

- Assayed Target: Microphthalmia-associated transcription factor (Homo sapiens) (UniProt O75030)
- Sequence (O75030 whole entry, looked up): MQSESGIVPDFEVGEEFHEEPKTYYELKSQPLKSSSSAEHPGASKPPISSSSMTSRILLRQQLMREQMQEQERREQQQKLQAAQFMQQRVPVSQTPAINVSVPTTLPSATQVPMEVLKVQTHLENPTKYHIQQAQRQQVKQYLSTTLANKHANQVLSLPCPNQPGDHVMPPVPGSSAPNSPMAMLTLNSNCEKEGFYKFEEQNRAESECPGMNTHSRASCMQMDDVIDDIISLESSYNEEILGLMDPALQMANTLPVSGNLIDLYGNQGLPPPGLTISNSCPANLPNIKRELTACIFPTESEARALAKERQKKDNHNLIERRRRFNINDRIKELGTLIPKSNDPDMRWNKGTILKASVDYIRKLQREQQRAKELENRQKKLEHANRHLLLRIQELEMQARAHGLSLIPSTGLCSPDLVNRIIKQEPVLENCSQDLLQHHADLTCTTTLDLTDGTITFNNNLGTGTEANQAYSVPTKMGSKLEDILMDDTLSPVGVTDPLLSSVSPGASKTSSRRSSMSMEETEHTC
- Assay Explanation: MITF inhibitors, primary screen, biochemical, AlphaScreen, human (AID 1259374);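 note: 0% = vehicle wells with protein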
- Assay Context: AlphaScreen MITF homodimerization, bead proximity signal; at 2.6 µM; active compounds read high
Among all 650,000 compounds or so, about 5,900 (0.91%) were called active. The entries come from a sample that favours actives as a whole.

Mol	inhibition (%)
COc1cc(N2CCOCC2)ccc1Nc1cc(Nc2ccccc2C(N)=O)ccn1	21.1
CC(C)CO/N=C1\C[C@@H](O)[C@@H](O)[C@@H]2[C@@H]3C(=O)N(C[C@@H]4CCCO4)C(=O)[C@@H]3CC[C@@H]12	-23
C[C@@H](c1ccccc1)N1C(=O)[C@H]2[C@H]3[C@H](O)C=CC(=O)[C@@H]3CC[C@H]2C1=O	17.6
O=C1N=C(N2CCCC2)S/C1=C/c1ccc(-c2ccccc2[N+](=O)[O-])o1	18.4
COc1cc(N2CCOCC2)ccc1Nc1cc(Nc2ccccc2-n2cccn2)c(C(F)(F)F)cn1	57.2

---

Parameter: inhibition. Scope: all listed entries.
- Assayed Target: Microphthalmia-associated transcription factor (Homo sapiens) (UniProt O75030)
- Assay Explanation: MITF inhibitors, primary screen, biochemical, AlphaScreen, human (AID 1259374);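 note: 0% = vehicle wells with protein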
- Assay Context: AlphaScreen MITF homodimerization, bead proximity signal; at 2.6 µM; active compounds read high
The campaign covered roughly 650,000 compounds. About 5,900 (0.91%) were called active. The sample holds actives, similar compounds and a random draw of the others, so the mix is not that of the screen.

Compound	Unit Name	inhibition
Cn1c(-c2ccccc2)cnc1NCc1cccc(F)c1	%	38
Cc1ccc2c(=O)c(CN3CCN(C)CC3)c(C)[nH]c2c1C	%	10
CSc1ccccc1C(=O)NCc1c(C)ncc2c1CCN(C(=O)c1cc(C)oc1C)C2	%	12.3
CCOC(=O)CSC1=Nc2ccccc2C2=NC(C(C)C)C(=O)N12 (configuration not stated)	%	1.69
COc1ccccc1-c1nnc(SCCN2CCOCC2)n1C	%	0.66
COc1cc(C2N=C(c3ccccc3)C(C)(C)N2O)ccc1O (configuration not stated)	%	2.87
Cc1noc(C)c1S(=O)(=O)N1CCN(Cc2nc3ccccc3n2C)CC1	%	8.13
COc1cc2nc(CN3CCN(c4ccccc4OC)CC3)[nH]c(=O)c2cc1OC	%	4.45
CC(C)N(CCNc1nc(N2CCCC2CO)nc2nc[nH]c12)C(C)C (configuration not stated)	%	5.38
O=C(CN1CCSCC1)N/N=C/c1ccc(Cl)cc1	%	17.4
O=C(CN1CCSCC1)N/N=C/c1ccc(F)cc1	%	47
CC(C)CCN1CCNC(=O)C1CC(=O)N1CCCO1 (configuration not stated)	%	1.48

---

Parameter: inhibition. Scope: all listed entries.
- Assayed Target: Microphthalmia-associated transcription factor (Homo sapiens)
- Assay Explanation: MITF inhibitors, primary screen, biochemical, AlphaScreen, human (AID 1259374);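 note: 0% = vehicle wells with protein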
- Assay Context: AlphaScreen MITF homodimerization, bead proximity signal; at 2.6 µM; active compounds read high
The whole screen tested about 650,000 compounds, of which about 5,900 (0.91%) were called active. Shown is part of a subset that was picked to be rich in actives.

Mol	inhibition, %
COc1ccccc1CN1CCN(c2ccccn2)CC1	45.1
Cc1ccccc1N1C(=O)NC(=O)/C(=C\c2ccoc2)C1=O	52.5
O=C1NC(=S)N(c2ccccc2)C(=O)/C1=C/c1ccc(I)o1	59.5
Cc1ccc(Cl)c2sc(=NC(=O)CN3C(=O)c4ccccc4C3=O)n(C)c12	14.4
COc1ccc(/C=C2/C(=O)NC(=O)N(c3ccccc3C)C2=O)cc1OC	1.35
Cc1cncn(CC(=O)NCCOc2ccccc2)c1=O	-1.97
COc1ccc(CN2CCN(Cc3ccccc3OC)CC2)cc1Br	77.2
Cc1ccc(N2C(=O)NC(=O)/C(=C\c3ccc(I)o3)C2=O)cc1C	41.7
CCOc1cc(C2C3=C(CCCC3=O)N(CC)C3=C2C(=O)CCC3)cc(Cl)c1O	3.45
Cc1cccc(N2C(=O)NC(=O)/C(=C\c3ccc(C)o3)C2=O)c1	2.19
O=C1NC(=O)N(c2ccccc2F)C(=O)/C1=C\c1ccco1	40

---

Parameter: inhibition. Scope: all listed entries.
- Assayed Target: Microphthalmia-associated transcription factor (Homo sapiens)
- Assay Explanation: MITF inhibitors, primary screen, biochemical, AlphaScreen, human (AID 1259374);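 note: 0% = vehicle wells with protein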
- Assay Context: AlphaScreen MITF homodimerization, bead proximity signal; at 2.6 µM; active compounds read high
Hit rate of the full screen: of about 650,000 compounds, about 5,900 (0.91%) were called active. The sample holds actives, similar compounds and a random draw of the others, so the mix is not that of the screen.

Compound	inhibition, %
OCCN1CCN(C(c2ccc(F)cc2)c2ccc3cccnc3c2O)CC1 (stereo unspecified)	50.6
CCCCC(=O)NC(c1ccco1)c1ccc2cccnc2c1O (stereo unspecified)	33
COCCCN1C(=O)c2cccc3cccc(c23)C1=O	1.36
Cc1ccc(C(c2cc(Cl)c3cccnc3c2O)N2CCN(c3ccccn3)CC2)cc1 (stereo unspecified)	-1.76
COc1cccc(CCNC(=O)CC2C(=O)NCCN2Cc2cccc(C(F)(F)F)c2)c1 (stereo unspecified)	10.1
O=C(NCC(c1cccnc1)N1CCOCC1)c1ccc(F)cc1 (stereo unspecified)	-7.05
CCCCC(=O)N1CCN(c2ccccc2OCC)CC1	-2.97
Cc1c(Cl)cccc1NC(=S)NCC(c1cccnc1)N1CCOCC1 (stereo unspecified)	7.47
CCc1nc2sc(C(c3ccc(F)cc3)N3CCCC3)c(O)n2n1 (stereo unspecified)	-1.32
Oc1c(C(c2ccccn2)N2CCOCC2)ccc2cccnc12 (stereo unspecified)	75.7
O=S(=O)(Oc1cccc2cccnc12)N1CCOCC1	-0.47
